Each recorded value in this set is attributed to patent US20240366589A1.

testedOn: Rat NHE3 (Rattus norvegicus, UniProt P26433)
Construct: expressed in transfected cells; host or cells: Opossum kidney (OK) cells (ATCC), electroporation
Sequence (P26433 29-831): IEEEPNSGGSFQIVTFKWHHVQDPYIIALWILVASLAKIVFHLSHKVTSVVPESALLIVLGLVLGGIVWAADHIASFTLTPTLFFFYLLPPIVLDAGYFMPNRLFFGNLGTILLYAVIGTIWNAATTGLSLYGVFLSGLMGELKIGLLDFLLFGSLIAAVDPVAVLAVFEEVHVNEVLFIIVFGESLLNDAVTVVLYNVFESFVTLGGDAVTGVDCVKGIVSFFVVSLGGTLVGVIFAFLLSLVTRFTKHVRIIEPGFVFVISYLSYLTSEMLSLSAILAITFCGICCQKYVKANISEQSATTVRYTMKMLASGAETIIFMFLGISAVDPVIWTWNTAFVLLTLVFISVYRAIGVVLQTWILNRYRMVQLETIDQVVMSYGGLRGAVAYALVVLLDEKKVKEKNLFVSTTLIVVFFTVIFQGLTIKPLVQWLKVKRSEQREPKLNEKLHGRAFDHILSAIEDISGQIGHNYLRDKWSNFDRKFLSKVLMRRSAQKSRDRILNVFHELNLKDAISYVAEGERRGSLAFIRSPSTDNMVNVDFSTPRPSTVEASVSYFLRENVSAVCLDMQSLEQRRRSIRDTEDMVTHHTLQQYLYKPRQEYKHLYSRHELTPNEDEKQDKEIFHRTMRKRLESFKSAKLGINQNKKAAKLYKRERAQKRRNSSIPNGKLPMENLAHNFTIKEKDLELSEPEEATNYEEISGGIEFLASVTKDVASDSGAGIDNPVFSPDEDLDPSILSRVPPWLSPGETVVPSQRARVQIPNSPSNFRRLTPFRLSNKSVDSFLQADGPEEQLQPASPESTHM
procedureDetails: Cell-based NHE3 activity under prompt conditions (OK cells, BCECF pH recovery), rat NHE3
conditionLabel: prompt conditions

{"columns": ["molecularString", "Prompt Rat NHE3 pIC50"],
 "data": [
  ["CN1Cc2c(Cl)cc(Cl)cc2[C@H](c2cccc(S(=O)(=O)NCCOCCOCCNC(=O)CCC(CCC(=O)NCCOCCOCCNS(=O)(=O)c3cccc([C@@H]4CN(C)Cc5c(Cl)cc(Cl)cc54)c3)(CCC(=O)NCCOCCOCCNS(=O)(=O)c3cccc([C@@H]4CN(C)Cc5c(Cl)cc(Cl)cc54)c3)NC(=O)N(C)C)c2)C1", 5.60],
  ["CN1Cc2c(Cl)cc(Cl)cc2[C@H](c2cccc(S(=O)(=O)NCCOCCOCCOCCNC(=O)CC(CC(=O)NCCOCCOCCOCCNS(=O)(=O)c3cccc([C@@H]4CN(C)Cc5c(Cl)cc(Cl)cc54)c3)C(=O)NCCOCCOCCOCCNS(=O)(=O)c3cccc([C@@H]4CN(C)Cc5c(Cl)cc(Cl)cc54)c3)c2)C1", 7.50]
]}

* * *

Tested on: absorption of sodium from the intestinal lumen
procedureDetails: Inhibition of intestinal sodium absorption: urinary sodium (uNa) 16 h after single oral dose in rats
Type: in vivo, rat
conditionLabel: oral gavage, dose 10 mg/kg, 16 h post-dose
One threshold, 80%, splits the recorded Urine Na % of control values: lower ones are class 1, equal or higher ones are class 0.

{"columns": ["molecularString", "testedOn", "assignedLabel"],
 "data": [
  ["NCCOCCOCCN1CCN(c2ccc(-c3nc(N=C(N)N)nc4ccc(Cl)cc34)cc2)CC1", "absorption of sodium from the intestinal lumen", "class 1"],
  ["CN1Cc2c(Cl)cc(Cl)cc2[C@H](c2cccc(S(=O)(=O)NCCOCCOCCNC(=O)CC(O)(CC(=O)NCCOCCOCCNS(=O)(=O)c3cccc([C@@H]4CN(C)Cc5c(Cl)cc(Cl)cc54)c3)C(=O)NCCOCCOCCNS(=O)(=O)c3cccc([C@@H]4CN(C)Cc5c(Cl)cc(Cl)cc54)c3)c2)C1", "absorption of sodium from the intestinal lumen", "class 1"],
  ["N=C(N)Nc1nc(-c2cccc(S(=O)(=O)NCCOCCOCCN)c2)c2cc(Cl)ccc2n1", "absorption of sodium from the intestinal lumen", "class 1"],
  ["O=C(NCCCCNC(=O)NCCOCCOCCNC(=O)Nc1cccc(O[C@H]2c3ccccc3C[C@@H]2N2CCCCC2)c1)NCCOCCOCCNC(=O)Nc1cccc(O[C@H]2c3ccccc3C[C@@H]2N2CCCCC2)c1", "absorption of sodium from the intestinal lumen", "class 0"],
  ["O=C(NCCOCCOCCNS(=O)(=O)c1ccc(O[C@H]2c3ccccc3C[C@@H]2N2CCCCC2)cc1)[C@H](O)[C@@H](O)C(=O)NCCOCCOCCNS(=O)(=O)c1ccc(O[C@H]2c3ccccc3C[C@@H]2N2CCCCC2)cc1", "absorption of sodium from the intestinal lumen", "class 0"]
]}

* * *

Known Urine Na % of control of a selection of compounds
Test system: absorption of sodium from the intestinal lumen
procedureDetails: Inhibition of intestinal sodium absorption: urinary sodium (uNa) 16 h after single oral dose in rats
Type: in vivo, rat
conditionLabel: oral gavage, dose 10 mg/kg, 16 h post-dose
assayEndpoint: Urine Na % of control (%)

{"columns": ["compound", "assayEndpoint", "observedResult"],
 "data": [
  ["C/C(=C\\c1cc(F)c(Oc2ccc(S(=O)(=O)NCCOCCOCCOCCNC(=O)N(C)CCCCN(C)C(=O)NCCOCCOCCOCCNS(=O)(=O)c3ccc(Oc4c(F)cc(/C=C(\\C)C(=O)N=C(N)N)cc4F)cc3)cc2)c(F)c1)C(=O)N=C(N)N", "Urine Na % of control", 100],
  ["NCCOCCOCCOCCN1CCN(c2ccc(-c3nc(N=C(N)N)nc4ccc(Cl)cc34)cc2)CC1", "Urine Na % of control", 74],
  ["CN1Cc2c(Cl)cc(Cl)cc2[C@H](c2cccc(S(=O)(=O)NCCOCCOCCOCCNC(=O)CN(CCN(CC(=O)O)CC(=O)NCCOCCOCCOCCNS(=O)(=O)c3cccc([C@@H]4CN(C)Cc5c(Cl)cc(Cl)cc54)c3)CC(=O)O)c2)C1", "Urine Na % of control", 4],
  ["N=C(N)Nc1nc(-c2cccc(N3CCN(CCOCCOCCOCCNC(=O)CCOCCOCCOCCOCCOCCC(=O)NCCOCCOCCOCCN4CCN(c5cccc(-c6nc(NC(=N)N)nc7ccc(Cl)cc67)c5)CC4)CC3)c2)c2cc(Cl)ccc2n1", "Urine Na % of control", 73],
  ["CN(CC(=O)NCCOCCOCCNS(=O)(=O)c1ccc(O[C@H]2c3ccccc3C[C@@H]2N2CCCCC2)cc1)CC(=O)NCCOCCOCCNS(=O)(=O)c1ccc(O[C@H]2c3ccccc3C[C@@H]2N2CCCCC2)cc1 (racemic)", "Urine Na % of control", 82]
]}

* * *

testedOn: Human NHE3 (Homo sapiens)
Construct: expressed in transfected cells; host or cells: Opossum kidney (OK) cells (ATCC), electroporation
Sequence (P48764 26-834): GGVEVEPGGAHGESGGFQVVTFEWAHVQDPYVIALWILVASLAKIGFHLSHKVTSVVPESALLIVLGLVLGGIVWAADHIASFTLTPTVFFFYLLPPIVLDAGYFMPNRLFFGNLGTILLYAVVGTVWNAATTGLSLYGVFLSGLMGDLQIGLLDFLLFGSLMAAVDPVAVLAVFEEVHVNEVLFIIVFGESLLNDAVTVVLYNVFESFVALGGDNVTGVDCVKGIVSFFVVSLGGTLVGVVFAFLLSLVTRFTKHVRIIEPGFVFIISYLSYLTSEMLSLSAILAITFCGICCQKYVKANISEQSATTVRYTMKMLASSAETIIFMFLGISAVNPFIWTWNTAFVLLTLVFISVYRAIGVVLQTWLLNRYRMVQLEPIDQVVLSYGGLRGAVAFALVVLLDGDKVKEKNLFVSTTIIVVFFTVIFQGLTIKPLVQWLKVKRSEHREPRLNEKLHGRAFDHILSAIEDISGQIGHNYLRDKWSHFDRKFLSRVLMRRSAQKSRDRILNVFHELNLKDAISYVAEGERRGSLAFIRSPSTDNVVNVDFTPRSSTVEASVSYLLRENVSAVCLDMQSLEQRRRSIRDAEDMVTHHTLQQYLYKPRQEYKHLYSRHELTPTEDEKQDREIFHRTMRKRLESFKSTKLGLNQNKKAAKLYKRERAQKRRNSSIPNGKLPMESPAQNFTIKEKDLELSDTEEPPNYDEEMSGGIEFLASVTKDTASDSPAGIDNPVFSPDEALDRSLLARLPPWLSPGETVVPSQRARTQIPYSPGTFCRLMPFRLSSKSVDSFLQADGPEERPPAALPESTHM
procedureDetails: Cell-based NHE3 activity under prompt conditions (OK cells, BCECF pH recovery), human NHE3
conditionLabel: prompt conditions
assayEndpoint: Prompt Human NHE3 pIC50

{"columns": ["molecularString", "modifier", "observedResult"],
 "data": [
  ["CN(CC(=O)NCCOCCOCCNC(=O)NCCOCCOCCOCCOc1cccc(-c2nc(NC(=N)N)nc3ccc(Cl)cc23)c1)CC(=O)NCCOCCOCCNC(=O)NCCOCCOCCOCCOc1cccc(-c2nc(NC(=N)N)nc3ccc(Cl)cc23)c1", "=", 7.70],
  ["C/C(=C\\c1cc(F)c(Oc2ccc(S(=O)(=O)NCCOCCOCCOCCN)cc2)c(F)c1)C(=O)N=C(N)N", "=", 6.80],
  ["CNC(=O)NC(CCC(=O)NCCOCCOCCNS(=O)(=O)c1cccc([C@@H]2CN(C)Cc3c(Cl)cc(Cl)cc32)c1)(CCC(=O)NCCOCCOCCNS(=O)(=O)c1cccc([C@@H]2CN(C)Cc3c(Cl)cc(Cl)cc32)c1)CCC(=O)NCCOCCOCCNS(=O)(=O)c1cccc([C@@H]2CN(C)Cc3c(Cl)cc(Cl)cc32)c1", "=", 7.20],
  ["O=C(NCCCCNC(=O)NCCOCCOCCNS(=O)(=O)c1ccc(O[C@H]2c3cc(Cl)cc(Cl)c3C[C@@H]2N2CCCCC2)cc1)NCCOCCOCCNS(=O)(=O)c1ccc(O[C@H]2c3cc(Cl)cc(Cl)c3C[C@@H]2N2CCCCC2)cc1", "<", 5.00]
]}

* * *

Test system: absorption of sodium from the intestinal lumen
procedureDetails: Inhibition of intestinal sodium absorption: urinary sodium (uNa) 16 h after single oral dose in rats
Assay type: in vivo, rat
conditionLabel: oral gavage, dose 3 mg/kg, 16 h post-dose
Known Urine Na % of control of a selection of compounds

{"columns": ["compound", "Urine Na % of control / %"],
 "data": [
  ["CC1Cc2c(Cl)cc(Cl)cc2[C@H](c2cccc(S(=O)(=O)NCCOCCOCCNC(=O)CCC(CCC(=O)NCCOCCOCCNS(=O)(=O)c3cccc([C@@H]4CN(C)Cc5c(Cl)cc(Cl)cc54)c3)(CCC(=O)NCCOCCOCCNS(=O)(=O)c3cccc([C@@H]4CN(C)Cc5c(Cl)cc(Cl)cc54)c3)NC(=O)N[C@@H](CC(=O)O)C(=O)O)c2)C1 (stereo partly drawn) [compound 145]", 41],
  ["C[C@@H](O)[C@H](NC(=O)NC(CCC(=O)NCCOCCOCCNS(=O)(=O)c1cccc([C@@H]2CN(C)Cc3c(Cl)cc(Cl)cc32)c1)(CCC(=O)NCCOCCOCCNS(=O)(=O)c1cccc([C@@H]2CN(C)Cc3c(Cl)cc(Cl)cc32)c1)CCC(=O)NCCOCCOCCNS(=O)(=O)c1cccc([C@@H]2CN(C)Cc3c(Cl)cc(Cl)cc32)c1)C(N)=O [compound 159]", 27],
  ["CN1CCN(C(=O)NC(CCC(=O)NCCOCCOCCNS(=O)(=O)c2cccc(C3CN(C)Cc4c(Cl)cc(Cl)cc43)c2)(CCC(=O)NCCOCCOCCNS(=O)(=O)c2cccc([C@@H]3CN(C)Cc4c(Cl)cc(Cl)cc43)c2)CCC(=O)NCCOCCOCCNS(=O)(=O)c2cccc([C@@H]3CN(C)Cc4c(Cl)cc(Cl)cc43)c2)CC1 (stereo in doubt) [compound 153]", 28]
]}
